Percent Effect values for the compounds below.
Test system: Wolbachia pipientis
Experiment: Anti-Wolbachia Cell-Based Screen
Assay type: functional
Parameters: scale not given: in the data most compounds retested in dose-response had high values
Conditions: 5 µM
The campaign covered roughly 48,000 compounds. About 13,000 (27%) showed an effect of 50% or more. The list shows a part of the results.

| compound | Percent Effect |
| --- | --- |
| COCCCNC(=O)N1CCC(CNC(=O)c2cnn(C)c2)CC1 | 114% |
| O=C(CO)N1CCCC(c2cc(C(F)(F)F)[nH]n2)C1 (stereo unspecified) | 144.8% |
| Cn1cc(C(=O)NC2CCN(C(=O)NCCSC(F)(F)F)CC2)cn1 | 19.88% |
| NC(=O)c1cc(C2CCCN(C(=O)CCc3ccccn3)C2)n[nH]1 (stereo unspecified) | 94.78% |
| Cn1cc(C(=O)NCC2CCN(C(=O)NCC(F)(F)F)CC2)cn1 | -3.622% |
| COCCNC(=O)N1CCC(NC(C)C)CC1 | 8.533% |
| Cc1ccc(S(=O)(=O)NCCCN2CCC(O)CC2)cc1Cl | 11.47% |
| Cn1cc(C(=O)NC2CCN(C(=O)NCC3CCSCC3)CC2)cn1 | -0.1776% |
| COC(=O)N1CCC(CNS(=O)(=O)c2cnn(C)c2)CC1 | -8.062% |
| Cn1cc(C(=O)NCC2CCN(C(=O)NC3CCCCC3)CC2)cn1 | 90.75% |
| CC(C)(C)N1CC(C(=O)N2CCN(CCn3cncn3)CC2)CC1=O (stereo unspecified) | -32.16% |

----------
# Percent Effect values compiled below
Tested on: Wolbachia pipientis
Test: Anti-Wolbachia Cell-Based Screen
Type: functional
Parameters: scale not given: in the data most compounds retested in dose-response had high values
Conditions: 5 µM
Hit rate of the full screen: of about 48,000 compounds, about 13,000 (27%) showed an effect of 50% or more. The list shows a part of the results.
value kind: Percent Effect (%)

| molecule | study system | value kind | display unit | recorded result |
| --- | --- | --- | --- | --- |
| COCCN(C)C[C@H]1C[C@@H](CO)CN(C(=O)c2ccn(C)c(=O)c2)C1 | Wolbachia pipientis | Percent Effect | % | 96.22 |
| Cn1c(NCCC(=O)N2CCCC2)c(C#N)c(=O)n(C)c1=O | Wolbachia pipientis | Percent Effect | % | 17.52 |
| Cc1ccc(CN2CCOCC2)cc1NCc1ccsc1 | Wolbachia pipientis | Percent Effect | % | -9.351 |
| CN(C)C[C@H]1C[C@H](CO)CN(C(=O)c2cc(S(N)(=O)=O)ccc2F)C1 | Wolbachia pipientis | Percent Effect | % | -6.33 |
| Cl.Cl.c1c(CN2CCCC2)nc2n1CCNC2 | Wolbachia pipientis | Percent Effect | % | 4.335 |
| Cc1nc(C(Cc2ccsc2)NC(=O)CCN2CCOCC2)sc1C (stereo unspecified) | Wolbachia pipientis | Percent Effect | % | 158.4 |

----------
Tested on: Wolbachia pipientis
Assay: Anti-Wolbachia Cell-Based Screen
Format: functional
Design: scale not given: in the data most compounds retested in dose-response had high values
Conditions: 5 µM
In all, about 48,000 compounds went through this assay and about 13,000 (27%) showed an effect of 50% or more. The list shows a part of the results.

| compound | Percent Effect [%] |
| --- | --- |
| CS(=O)(=O)NC[C@@H]1OC[C@H]2CN(C(=O)c3ccccc3)CC[C@H]21 | -5.092 |
| c1ccc(C(Cn2cccn2)Nc2cnccn2)cc1 (stereo not drawn) | 93.79 |
| CS(=O)(=O)NC[C@H]1OC[C@@H]2CCN(CCc3ccccc3)C[C@@H]21.O=C(O)C(F)(F)F | 101.5 |
| Cc1cccc(CN2CC[C@@H]3[C@@H](CO[C@H]3CNc3ncccn3)C2)n1.O=C(O)C(F)(F)F.O=C(O)C(F)(F)F.O=C(O)C(F)(F)F | 100.3 |
| CNc1cc(C)nc(N2C[C@H](NC(=O)C3CCOCC3)[C@@H](C3CC3)C2)n1 | -20.28 |
| CS(=O)(=O)NC[C@H]1OC[C@H]2CN(CCc3ccccc3)CC[C@H]21.O=C(O)C(F)(F)F | 87.13 |
| CS(=O)(=O)NC[C@H]1OC[C@@H]2CCN(Cc3ccc(F)cc3)C[C@@H]21.O=C(O)C(F)(F)F | -22.2 |
| CS(=O)(=O)NC[C@@H]1OC[C@H]2CN(C(=O)c3ccccn3)CC[C@H]21.O=C(O)C(F)(F)F | -10.63 |
| CC(NC(=O)Cn1cccn1)c1cccnc1 (stereo not drawn) | -3.155 |
| CC(Cn1cccn1)NS(=O)(=O)Cc1ccccc1 (stereo not drawn) | -19.72 |
| Cc1cccc(CN2CC[C@H]3CO[C@H](CNC(=O)N(C)C)[C@H]3C2)c1.O=C(O)C(F)(F)F | -5.522 |
| CCC(C)NC(=O)CCNC(=O)c1c[nH]cc1-c1cccc(OC)c1 (stereo not drawn) | -21.59 |
| CC(=O)NCCC(=O)Nc1sccc1C(=O)C(C)(C)C | 21.69 |
| COc1ccc(CN2CC[C@H]3CO[C@H](CNC(=O)N(C)C)[C@H]3C2)cc1.O=C(O)C(F)(F)F | -1.403 |
| O=C(CNC(Cn1cccn1)c1ccccc1)Nc1cnccn1 (stereo not drawn) | 104.7 |
| CS(=O)(=O)NC[C@@H]1OC[C@H]2CN(Cc3ccccc3)CC[C@H]21.O=C(O)C(F)(F)F | 107.1 |
| O=C(CNCc1ccccc1Cn1cccn1)Nc1cnccn1 | 109.9 |
| CN(C)C(=O)NC[C@@H]1OC[C@H]2CN(Cc3cccc(F)c3)CC[C@H]21.O=C(O)C(F)(F)F | -1.144 |

----------
Consider the following molecules and their measured Percent Effect readings.
Test system: Wolbachia pipientis
Experiment: Anti-Wolbachia Cell-Based Screen
Format: functional
Set-up: scale not given: in the data most compounds retested in dose-response had high values
Details: 5 µM
Among all 48,000 compounds or so, about 13,000 (27%) showed an effect of 50% or more. The list shows a part of the results.

| molecule | display unit | Percent Effect |
| --- | --- | --- |
| CC(C)n1ccnc1C1CCCN(c2ccnc3ccccc23)C1 (stereo unspecified) | % | -21.91 |
| COC1CCN(c2cc(C(C)C)nc3ccnn23)C1 (stereo unspecified) | % | -6.556 |
| Cc1ncnc2c1CCN(Cc1ccccn1)CC2.O=C(O)C(F)(F)F.O=C(O)C(F)(F)F | % | -3.635 |
| CCCC(=O)NCC(=O)NC(c1ccc(Cl)cc1)C(F)(F)F (stereo unspecified) | % | -4.192 |
| COCc1nn(CC2CC2)c2c1CN(Cc1cncn1C)CC2.O=C(O)C(F)(F)F | % | -13.43 |
| Cc1cccc(CN2CCc3ncnc(C4CC4)c3CC2)n1.O=C(O)C(F)(F)F | % | 113.1 |
| O=C(O)C(F)(F)F.O=C(O)C(F)(F)F.c1ccc(CN2CCc3ncnc(C4CCOC4)c3CC2)nc1 (stereo unspecified) | % | 3.596 |
| COc1ccc(NC(=O)CCC2CCCN(Cc3ncon3)C2)cc1Cl (stereo unspecified) | % | 9.109 |
| O=C(c1ccoc1)N1CCC2(C1)CN(c1nccs1)C2 | % | -3.02 |
| Cc1ccc(CC(=O)N2CCC(c3nnc4n3CCC4)CC2)cc1 | % | -4.36 |
| Cc1cccc2nc(CN3CCCC(C)C3)cc(=O)n12 (stereo unspecified) | % | 12.06 |

----------
Recorded Percent Effect, one value per entry.
System: Wolbachia pipientis
Assay: Anti-Wolbachia Cell-Based Screen
Assay type: functional
Parameters: scale not given: in the data most compounds retested in dose-response had high values
Settings: 5 µM
Hit rate of the full screen: of about 48,000 compounds, about 13,000 (27%) showed an effect of 50% or more. This is one part of the list.
value kind: Percent Effect (%)

| compound | study system | recorded result |
| --- | --- | --- |
| CS(=O)(=O)NCCCSCc1cccc2cccnc12 | Wolbachia pipientis | -10.2 |
| CCn1cc(CN2CCc3nc(-c4ccccn4)nc(O)c3C2)cn1 | Wolbachia pipientis | 107.7 |
| Cc1cnc(N2CC[C@@H](N3CCOCC3)[C@@H]2Cc2ccncc2)nc1.O=C(O)C(F)(F)F.O=C(O)C(F)(F)F | Wolbachia pipientis | -9.199 |
| Cc1cc(N2CCN(C(=O)c3cc(Cl)c[nH]3)CC2)nc(C)n1 | Wolbachia pipientis | -11.81 |
| O=C(Cc1ccccn1)N1CCc2c(O)nc(-c3cnccn3)nc2C1 | Wolbachia pipientis | 94.87 |
| CCS(=O)(=O)N(C)C(=O)c1cc(C)n(-c2cccc(OC)c2)c1C | Wolbachia pipientis | -13.82 |
| CC[C@@]1(O)CCN(c2ncc(Cl)cc2C(F)(F)F)C[C@H]1O | Wolbachia pipientis | -3.293 |
| O=C(Cc1ccccn1)N1CCc2nc(-c3cnccn3)nc(O)c2C1 | Wolbachia pipientis | -13.11 |
| CN1CCN(C(=O)Cc2ccccn2)Cc2cccnc21 | Wolbachia pipientis | -6.313 |
| CCN(Cc1nonc1C)C(=O)c1cnccn1 | Wolbachia pipientis | -6.24 |
| CC(C)c1cc(C(=O)NCCn2nc3ccccn3c2=O)n[nH]1 | Wolbachia pipientis | 7.227 |
| CC(C)Oc1ccc(C(=O)Nc2nncs2)cn1 | Wolbachia pipientis | -3.461 |
| CCn1cc(CN2CCc3nc(N4CCOCC4)nc(O)c3CC2)cn1 | Wolbachia pipientis | -4.464 |
| O=S(=O)(CCCn1cncn1)Cc1cccc(F)c1 | Wolbachia pipientis | 2.155 |
| O=C(CSCC1CC1)N1C[C@@H]2CC[C@H](C1)N(Cc1ccccn1)C2=O | Wolbachia pipientis | 4.164 |
| CCc1cc(N(C)Cc2nonc2C)nc(N(C)C)n1 | Wolbachia pipientis | 93.32 |
| Cc1nn(CC(C)C)c(N(C)C)c1CNCCC(=O)NC(C)C | Wolbachia pipientis | -6.967 |
| Cn1cccc1CN1CCC2(CC1)CC(Oc1cccnc1)C2.O=C(O)C(F)(F)F.O=C(O)C(F)(F)F | Wolbachia pipientis | 9.854 |
| COc1cc(F)c(C(=O)NCc2ccon2)c(F)c1 | Wolbachia pipientis | -19.7 |
| CC(NC(=O)NC1CCN(Cc2ccncc2)CC1)c1cccc(F)c1 (stereo not drawn) | Wolbachia pipientis | 10.76 |
| CCc1cc(N(C)Cc2nonc2C)nc(N2CCOCC2)n1 | Wolbachia pipientis | -1.429 |
| Cc1cc(=O)n(C)cc1NC(=O)CC1CCC1 | Wolbachia pipientis | -11.35 |
| Cc1cc(=O)n2nc(Oc3ccc(F)c(F)c3)sc2n1 | Wolbachia pipientis | 78.71 |

Data origin, for the record: ChEMBL document CHEMBL3988442
